target.of.assay: recombinant eIF4E (Homo sapiens (Human), UniProt P06730)
Sequence (P06730 whole entry): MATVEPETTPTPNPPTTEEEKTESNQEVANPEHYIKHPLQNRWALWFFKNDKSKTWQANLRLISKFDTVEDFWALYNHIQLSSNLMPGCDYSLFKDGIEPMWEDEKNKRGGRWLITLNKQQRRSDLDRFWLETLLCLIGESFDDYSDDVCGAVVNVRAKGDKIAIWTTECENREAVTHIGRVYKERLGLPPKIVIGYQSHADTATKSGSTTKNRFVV
protocol.description: Fluorescence polarization competition assay for eIF4E binding potency
conditions.used: inhibition of eIF4E/EDA-m7GDP-ATTO-550 binding by 50%; Table 4B calculated values; read-out: IC50
Exercise: for every item that follows, state its recorded IC50.
# number only, unit nM dropped from output

Endpoint output: IC50 of N#Cc1cc2c(=O)n(CCOc3ccc(Cl)cc3-c3ccc(C(=O)O)s3)cnc2cn1 [compound 53] . Value?
931

Field entry: Cc1cc(-c2cc(Cl)ccc2OCCn2c(C)nc3cnc(N(C)c4ccccc4)c(C#N)c3c2=O)c2scc(C(=O)O)c2n1 [compound 986]
16.9

Field entry: Cc1nc(N2CCN(C)CC2)c(C#N)c2c(=O)n(CCOc3ccc(Cl)cc3-c3ccnc4c(C(=O)O)csc34)c(C)nc12 [compound 448]
4.2

Field entry: Cc1cc(-c2cc(Cl)ccc2OCCn2c(C)nc3c(C)ncc(C#N)c3c2=O)c2scc(C(O)(O)C(F)(F)F)c2n1 [compound 732]
874

Field entry: C=Cc1ncc2nc(C)n(CCOc3ccc(Cl)cc3-c3cc(C)nc4c(C(=O)O)csc34)c(=O)c2c1C#N [compound 809]
16

Field entry: Cc1sc2c(-c3cc(Cl)ccc3OCCn3c(C)nc4c(F)cc(C(F)F)c(C#N)c4c3=O)ccnc2c1C(=O)O [compound 123]
36.5

Field entry: Cc1nc2cnc(N3CCN(CC(F)F)C4CC43)c(C#N)c2c(=O)n1CCOc1ccc(Cl)cc1-c1ccnc2c(C(=O)O)csc12 (stereo not shown) [compound 824]
13.6

* * *

target.of.assay: recombinant eIF4E (Homo sapiens (Human))
protocol.description: Fluorescence polarization competition assay for eIF4E binding potency
conditions.used: inhibition of eIF4E/EDA-m7GDP-ATTO-550 binding by 50%; Table 4B calculated values; read-out: IC50
observable: pIC50
// pIC50 is dimensionless: -log10 of concentration (M)

Endpoint output: pIC50 of Cc1cc(-c2cc(Cl)ccc2OCCn2c(C)nc3ccc(CCN(C)C)c(C#N)c3c2=O)c2scc(C(=O)O)c2n1 [compound 584] . Value?
7.63

Field entry: Cc1nc2cnc(N3CCN(C)CC3)c(C#N)c2c(=O)n1CCOc1ccc(Cl)cc1-c1ccnc2c(C(=O)O)csc12 [compound 707]
7.75

Field entry: COc1ccc2nc(C)n(CCOc3ccc(Cl)cc3-c3ccnc4c(C(=O)O)csc34)c(=O)c2c1C#N [compound 404]
8.00

Field entry: Cc1cc(-c2cc(Cl)ccc2OCCn2c(C)nc3cc(C(F)(F)F)c(-c4cc(C)n(C)n4)c(C#N)c3c2=O)c2scc(C(=O)O)c2n1 [compound 1029]
8.12

Field entry: Cc1cc(-c2cc(Cl)ccc2OCCn2c(C)nc3cc(C(F)(F)F)c(C4CN(C)C4)c(C#N)c3c2=O)c2scc(C(=O)O)c2n1 [compound 652]
8.18

Field entry: Cc1cc(-c2cc(Cl)ccc2OCCn2c(C)nc3cc(C(F)(F)F)c(-c4cccnc4)nc3c2=O)c2scc(C(=O)O)c2n1 [compound 461]
8.21

* * *

Exercise: for every item that follows, state its recorded pIC50.
target.of.assay: recombinant eIF4E (Homo sapiens (Human), UniProt P06730)
protocol.description: Fluorescence polarization competition assay for eIF4E binding potency
conditions.used: inhibition of eIF4E/EDA-m7GDP-ATTO-550 binding; calculated IC50 values, Table 4B; read-out: IC50
// pIC50 is dimensionless: -log10 of concentration (M)

Endpoint output: pIC50 of Cc1nc2cc(C(F)(F)F)c(N3CCN(C)CC3)c(C#N)c2c(=O)n1CCOc1ccc(Cl)cc1-c1cc(C(=O)O)nc(N(C)C)c1 [compound 1225] . Value?
8.51

Field entry: Cc1nc2cc(C(F)(F)F)c(N3CCN(C)CC3)c(C#N)c2c(=O)n1CCOc1ccc(Cl)cc1-c1ccnc2c(P(=O)(O)O)csc12 [compound 1613]
7.79

Field entry: Cc1nc2cnc(N3CCN(CC(F)(F)F)CC3)c(C#N)c2c(=O)n1CCOc1ccc(Cl)cc1-c1ccnc2c(C(=O)O)csc12 [compound 1304]
7.73

Field entry: Cc1nc2cnc(N(C)C3CCN(CC(F)F)CC3)c(C#N)c2c(=O)n1C(C)C#Cc1ccc(Cl)cc1-c1ccnc2c(C(=O)O)csc12 (stereo not drawn) [compound 1557]
8.17

Field entry: CCN(c1ncc2nc(C)n(CC#Cc3ccc(Cl)cc3-c3ccnc4c(C(=O)NS(=O)(=O)c5ccccn5)csc34)c(=O)c2c1C#N)C1CCN(C2CC(F)(F)C2)CC1 [compound 1840]
7.58

Field entry: Cc1nc2cnc(Nc3ccccc3)cc2c(=O)n1CCOc1ccc(Cl)cc1-c1cccc(C(=O)O)c1 [compound 2004]
6.19
